- assay-overview: HepG2 cytotoxicity, primary screen, cytotoxicity control for P. falciparum antimalarial project, cell-based, ATP luminescence (AID 2303);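 note: 0% = DMSO wells and 100% = digitonin-killed cells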
- test-settings: HepG2 viability, 24-48 h, at 10 µM, stronger effect = higher value
Activity calls are given as the source filed them.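 Rule for the calls: active = inhibition above 50%; inactive = the rest.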
Assign inhibition to each entry below.

Some solved entries appear below for comparison.
[
  {
    "molecule": "CCCCC(=O)Nc1cc(=O)[nH]c2nc(-c3ccc(Cl)cc3)nn12",
    "inhibition": "1% (inactive)"
  },
  {
    "molecule": "CN(C)CCCn1c(C(=O)OC(c2ccccc2)c2ccccc2)cc2cc(OCc3ccccc3)ccc21",
    "inhibition": "12% (inactive)"
  },
  {
    "molecule": "CCN1CCC(N(Cc2ccc(-c3ccc(C(F)(F)F)cc3)cc2)C(=O)Cn2nc(C)c(=O)cc2SCc2ccc(F)cc2)CC1",
    "inhibition": "77% (active)"
  },
  {
    "molecule": "COc1ccccc1C(=O)Nc1ccc(Nc2nc(C)cc(N3CCOCC3)n2)cc1",
    "inhibition": "28% (inactive)"
  },
  {
    "molecule": "Cc1cccc2[nH]c(-c3cccc(-c4cccc(NC(=O)NCc5ccccc5)c4)c3)nc12",
    "inhibition": "12% (inactive)"
  },
  {
    "molecule": "COc1ccc(Nc2nccc(N3CCC(NC(=O)c4cc5ccccc5s4)C3)n2)cc1 (centres undefined)",
    "inhibition": "1% (inactive)"
  }
]

Look at each molecule and report its inhibition.
1. CCNc1cc(CCCC(=O)OCC)nc(Nc2ccc(C)cc2)n1
2. CCn1c2c(c(=N)c3ccccc31)CCC2
3. CC(C)Oc1cc2c(cc1NS(=O)(=O)c1ccc(-c3ccc(Cl)cc3)cc1)CCN(C)CC2
4. Nc1nc2ccc(CN(C=O)c3ccc(C(=O)N[C@@H](CCC(=O)O)C(=O)O)cc3)cc2c(=O)[nH]1
5. O=C(NCc1cccs1)[C@H](Cc1ccccc1)Nc1ccnc(NCCc2ccc(F)cc2)n1
6. CCN(CC)S(=O)(=O)c1ccc(C=CC(=O)Nc2cc(Cl)ccc2N2CCOCC2)cc1
7. Oc1ccc(Nc2nc(NCc3ccco3)c3ccccc3n2)cc1
8. COc1ccc(C(C(=O)NC2CCN(C[C@H](O)c3ccnc4ccc(OC)cc34)CC2)N2CCN(c3ccc([N+](=O)[O-])cc3)CC2)cc1 (some centres undefined)

Result:
17% (inactive)
11% (inactive)
100% (active)
-5% (inactive)
1% (inactive)
3% (inactive)
7% (inactive)
17% (inactive)
